biological target: UniProtKB P00533; details: sw 620
parameter: IC50 (mg/L)
Number only, in mg/L; omit the unit.

[[record]]
compound = "CCOc1c(Nc2ccc3ncc(C#N)c(Nc4cccc(Br)c4)c3c2)c(=O)c1=O"
parameter = "IC50"
uom = "mg/L"
readout_value = 18

[[record]]
compound = "COCCOCC#CC(=O)Nc1ccc2ncc(C#N)c(Nc3cccc(Br)c3)c2c1"
parameter = "IC50"
uom = "mg/L"
readout_value = 0.4

[[record]]
compound = "COCCN(C)CC#CC(=O)Nc1ccc2ncc(C#N)c(Nc3cccc(Br)c3)c2c1"
parameter = "IC50"
uom = "mg/L"
readout_value = 0.239

[[record]]
compound = "COC[C@@H]1CCCN1C/C=C/C(=O)Nc1cc2c(Nc3ccc(F)c(Cl)c3)c(C#N)cnc2cc1OC"
parameter = "IC50"
uom = "mg/L"
readout_value = 1.24

[[record]]
compound = "COc1cc2ncc(C#N)c(Nc3ccc(F)c(Cl)c3)c2cc1NC(=O)/C=C/CN1CCC2(CC1)OCCO2"
parameter = "IC50"
uom = "mg/L"
readout_value = 2.51

[[record]]
compound = "COCCN(C)C/C=C\\C(=O)Nc1cc2c(Nc3ccc(F)c(Cl)c3)c(C#N)cnc2cc1OC"
parameter = "IC50"
uom = "mg/L"
readout_value = 1.53


// query Supply recorded IC50 for C=CCN(C)CC#CC(=O)Nc1ccc2ncc(C#N)c(Nc3cccc(Br)c3)c2c1 here.
// result 0.1

// query Query IC50 for COc1cc2ncc(C#N)c(Nc3ccc(F)c(Cl)c3)c2cc1NC(=O)/C=C\CN1CCCC(CO)C1 (stereo unspecified)
// result 1.73

// query # return recorded IC50 for input COC[C@@H]1CCCN1CC#CC(=O)Nc1ccc2ncc(C#N)c(Nc3cccc(Br)c3)c2c1
// result 0.1

// query Entry COCCN(CC#CC(=O)Nc1ccc2ncc(C#N)c(Nc3cccc(Br)c3)c2c1)CCOC needs its IC50 filled in; supply it.
// result 0.5

---

biological target: EGFR (human); details: sk-br-3
parameter: IC50 (µg/mL)
Record the value in µg/mL, omitting the unit from your answer.

// query Report IC50, nothing else, for this compound: CN1CCC=C(C(=O)Nc2ccc3ncc(C#N)c(Nc4cccc(Br)c4)c3c2)C1
// result 1.5

// query Identify measured IC50 corresponding to CCOc1c(Nc2ccc3ncc(C#N)c(Nc4cccc(Br)c4)c3c2)c(=O)c1=O
// result 1.74

// query Supply measured IC50 of COCCN(C)C/C=C\C(=O)Nc1cc2c(Nc3ccc(F)c(Cl)c3)c(C#N)cnc2cc1OC in your reply.
// result 0.107

// query Answer with reported IC50 of COc1cc2ncc(C#N)c(Nc3ccc(F)c(Cl)c3)c2cc1NC(=O)/C=C/CN1CCC2(CC1)OCCO2
// result 0.188

// query Supply reported IC50 belonging to this compound: COC[C@@H]1CCCN1C/C=C/C(=O)Nc1cc2c(Nc3ccc(F)c(Cl)c3)c(C#N)cnc2cc1OC
// result 0.148

// query Give the value of IC50 reported for the following: COCCOCC#CC(=O)Nc1ccc2ncc(C#N)c(Nc3cccc(Br)c3)c2c1
// result 0.8

---

Consider the following compounds and their measured IC50 readings.
molecular target: UniProtKB P00533; conditions: 3t3
Express your answer in µg/mL, writing the number without its unit.

Take a look at these entries with their results.
[[record]]
compound = "COc1cc2ncc(C#N)c(Nc3ccc(F)c(Cl)c3)c2cc1NC(=O)/C=C/CN1CCC2(CC1)OCCO2"
target_or_system = "UniProtKB P00533"
parameter = "IC50"
readout_value = 2.79

[[record]]
compound = "COC[C@@H]1CCCN1C/C=C/C(=O)Nc1cc2c(Nc3ccc(F)c(Cl)c3)c(C#N)cnc2cc1OC"
target_or_system = "UniProtKB P00533"
parameter = "IC50"
readout_value = 2.1

[[record]]
compound = "COCCN(C)C/C=C\\C(=O)Nc1cc2c(Nc3ccc(F)c(Cl)c3)c(C#N)cnc2cc1OC"
target_or_system = "UniProtKB P00533"
parameter = "IC50"
readout_value = 2.04


Now consider a different compound.
// query For COc1cc2ncc(C#N)c(Nc3ccc(F)c(Cl)c3)c2cc1NC(=O)/C=C\CN1CCCC(CO)C1 (centres undefined) , write its IC50.
// result 2.87

---

biological target: UniProt:P00533; settings: her2/3t3
parameter: IC50
# answer = value followed by unit

[[record]]
molecule = "COCCN(C)C/C=C\\C(=O)Nc1cc2c(Nc3ccc(F)c(Cl)c3)c(C#N)cnc2cc1OC"
readout_value = "0.192 mg/L"


// query Identify measured IC50 associated with COc1cc2ncc(C#N)c(Nc3ccc(F)c(Cl)c3)c2cc1NC(=O)/C=C\CN1CCCC(CO)C1 (centres undefined)
// result 0.375 mg/L

// query Give IC50 for the following molecule: COC[C@@H]1CCCN1C/C=C/C(=O)Nc1cc2c(Nc3ccc(F)c(Cl)c3)c(C#N)cnc2cc1OC
// result 0.329 mg/L

// query Could you please provide reported IC50 for COc1cc2ncc(C#N)c(Nc3ccc(F)c(Cl)c3)c2cc1NC(=O)/C=C/CN1CCC2(CC1)OCCO2 ? Thanks!
// result 0.35 mg/L

---

target: EGFR (human) (UniProt P00533); conditions: a431
Sequence (P00533 whole entry, looked up): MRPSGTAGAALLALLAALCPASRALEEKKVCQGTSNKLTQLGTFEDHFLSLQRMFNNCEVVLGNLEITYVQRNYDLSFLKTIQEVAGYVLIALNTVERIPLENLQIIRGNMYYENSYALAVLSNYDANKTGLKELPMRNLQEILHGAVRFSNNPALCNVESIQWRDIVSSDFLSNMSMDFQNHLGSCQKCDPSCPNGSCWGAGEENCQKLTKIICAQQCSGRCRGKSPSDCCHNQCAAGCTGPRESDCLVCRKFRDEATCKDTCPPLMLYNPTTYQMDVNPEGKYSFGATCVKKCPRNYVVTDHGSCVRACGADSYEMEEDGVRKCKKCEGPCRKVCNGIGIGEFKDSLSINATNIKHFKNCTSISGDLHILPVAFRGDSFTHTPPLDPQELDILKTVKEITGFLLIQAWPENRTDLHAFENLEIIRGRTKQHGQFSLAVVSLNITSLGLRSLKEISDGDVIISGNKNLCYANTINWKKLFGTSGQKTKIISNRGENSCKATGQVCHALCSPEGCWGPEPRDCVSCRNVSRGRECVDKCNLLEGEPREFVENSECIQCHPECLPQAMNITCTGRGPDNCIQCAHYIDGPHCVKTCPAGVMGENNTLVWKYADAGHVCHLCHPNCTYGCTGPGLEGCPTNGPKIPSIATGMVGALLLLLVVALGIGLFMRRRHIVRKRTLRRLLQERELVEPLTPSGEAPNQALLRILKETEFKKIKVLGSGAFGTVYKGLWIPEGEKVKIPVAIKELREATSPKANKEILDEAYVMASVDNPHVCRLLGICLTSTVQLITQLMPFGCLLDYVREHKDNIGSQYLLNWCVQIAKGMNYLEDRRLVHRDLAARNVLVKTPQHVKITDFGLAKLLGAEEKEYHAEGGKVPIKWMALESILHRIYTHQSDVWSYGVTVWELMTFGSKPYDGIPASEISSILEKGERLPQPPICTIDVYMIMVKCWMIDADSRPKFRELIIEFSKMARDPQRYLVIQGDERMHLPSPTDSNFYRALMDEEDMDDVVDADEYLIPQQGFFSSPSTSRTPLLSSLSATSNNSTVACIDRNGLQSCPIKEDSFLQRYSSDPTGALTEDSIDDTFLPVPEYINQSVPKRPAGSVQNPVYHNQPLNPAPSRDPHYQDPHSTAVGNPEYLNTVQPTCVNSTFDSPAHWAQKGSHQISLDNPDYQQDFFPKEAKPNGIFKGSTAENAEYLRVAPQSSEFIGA
Item-by-item account of IC50
Give the quantity in µg/mL, number only.

// query // fetch IC50 given entry COCCN(CC#CC(=O)Nc1ccc2ncc(C#N)c(Nc3cccc(Br)c3)c2c1)CCOC
// result 0.1

// query Given COc1cc2ncc(C#N)c(Nc3ccc(F)c(Cl)c3)c2cc1NC(=O)/C=C/CN1CCC2(CC1)OCCO2 , respond with its IC50.
// result 0.283

// query Identify IC50 associated with the compound CN1CCC=C(C(=O)Nc2ccc3ncc(C#N)c(Nc4cccc(Br)c4)c3c2)C1
// result 0.369

// query Specify reported IC50 for the compound shown: COCCOCC#CC(=O)Nc1ccc2ncc(C#N)c(Nc3cccc(Br)c3)c2c1
// result 0.9

// query Fill in IC50 for record COC[C@@H]1CCCN1C/C=C/C(=O)Nc1cc2c(Nc3ccc(F)c(Cl)c3)c(C#N)cnc2cc1OC
// result 0.234

---

target: EGFR (human); conditions: mda-mb-435
parameter: IC50 (µg/mL)
Dear colleague, please return just the value in µg/mL, with no unit written.

Use these answered entries as a reference point.
[[record]]
compound = "COc1cc2ncc(C#N)c(Nc3ccc(F)c(Cl)c3)c2cc1NC(=O)/C=C\\CN1CCCC(CO)C1 (stereo unspecified)"
parameter = "IC50"
readout_value = 1.83

[[record]]
compound = "COC[C@@H]1CCCN1C/C=C/C(=O)Nc1cc2c(Nc3ccc(F)c(Cl)c3)c(C#N)cnc2cc1OC"
parameter = "IC50"
readout_value = 1.74


// query Quick one: give measured IC50 for C=CCN(C)CC#CC(=O)Nc1ccc2ncc(C#N)c(Nc3cccc(Br)c3)c2c1
// result 0.1

// query Tell us which IC50 value is on record for COc1cc2ncc(C#N)c(Nc3ccc(F)c(Cl)c3)c2cc1NC(=O)/C=C/CN1CCC2(CC1)OCCO2
// result 3.32

// query Give reported IC50 value for CCOc1c(Nc2ccc3ncc(C#N)c(Nc4cccc(Br)c4)c3c2)c(=O)c1=O
// result 27.6

// query Give me measured IC50, please, for this compound: CN1CCC=C(C(=O)Nc2ccc3ncc(C#N)c(Nc4cccc(Br)c4)c3c2)C1
// result 3.19

// query Note IC50 for the compound shown: COCCN(CC#CC(=O)Nc1ccc2ncc(C#N)c(Nc3cccc(Br)c3)c2c1)CCOC
// result 0.2

// query // Input: COCCN(C)C/C=C\C(=O)Nc1cc2c(Nc3ccc(F)c(Cl)c3)c(C#N)cnc2cc1OC . Output its IC50 only.
// result 2.07

// query Retrieve IC50 measured for COCCOCC#CC(=O)Nc1ccc2ncc(C#N)c(Nc3cccc(Br)c3)c2c1 and print it.
// result 3.5

// query For the compound COC[C@@H]1CCCN1CC#CC(=O)Nc1ccc2ncc(C#N)c(Nc3cccc(Br)c3)c2c1 , give its measured IC50 value.
// result 0.3

// query Provide IC50 value for the following compound: COCCN(C)CC#CC(=O)Nc1ccc2ncc(C#N)c(Nc3cccc(Br)c3)c2c1
// result 0.284

---

This listing pairs compounds with measured IC50.
target: EGFR (human); details: a431
Could you give me the number in µg/mL? Just the number is fine.

[[record]]
compound = "COCCN(C)C/C=C\\C(=O)Nc1cc2c(Nc3ccc(F)c(Cl)c3)c(C#N)cnc2cc1OC"
target_or_system = "EGFR (human)"
parameter = "IC50"
uom = "µg/mL"
readout_value = 0.245

[[record]]
compound = "COc1cc2ncc(C#N)c(Nc3ccc(F)c(Cl)c3)c2cc1NC(=O)/C=C\\CN1CCCC(CO)C1 (centres undefined)"
target_or_system = "EGFR (human)"
parameter = "IC50"
uom = "µg/mL"
readout_value = 0.232

[[record]]
compound = "CCOc1c(Nc2ccc3ncc(C#N)c(Nc4cccc(Br)c4)c3c2)c(=O)c1=O"
target_or_system = "EGFR (human)"
parameter = "IC50"
uom = "µg/mL"
readout_value = 4.91


// moving on: another record for IC50
// query Please indicate IC50 recorded for COCCN(C)CC#CC(=O)Nc1ccc2ncc(C#N)c(Nc3cccc(Br)c3)c2c1
// result 0.05
